- Protocol description: Solubility profile of freeform Type D in citrate buffers
- Format: physicochemical
- Details: aqueous buffer, thermodynamic from solid; 20 mM citrate buffer, buffer pH 3.02, RT, 24 hours, end pH 4.59; read-out: Solubility
- Description: Additional solids were added into the sample to generate suspension if clear solution was obtained. The suspension was equilibrated via stirring (1000 rpm) for 24 hours. The suspension was centrifuged to obtain precipitate and supernatants. Solubility and pH were tested for the supernatants after filtration, and the isolated precipitate was tested by XRPD.
Reported metric: solubility at 24 h
Quote the value and follow it with the unit of measurement.

Look up solubility at 24 h for this molecule: CC(=O)NCC1CCN(Cc2cc(Oc3ccc(N4CCN(CCC(=O)O)CC4)nc3)nc(-c3cc(Cl)cc(Cl)c3)c2)CC1 [Freeform Type D]
14 mg/mL

* * *

- Protocol description: Formulation solution stability experiments at 5° C.
- Type: physicochemical
- Details: formulation solution without sugars (supernatant), aqueous buffer, thermodynamic from solid; 5° C., without sugars; read-out: citrate solubility (supernatant concentration)
Where a name gives a salt, the structure may show the parent alone.
Reported metric: solubility at 2 days (mg/mL)
Numbers only; they are read as mg/mL.

Look up solubility at 2 days for this compound: CC(=O)NCC1CCN(Cc2cc(Oc3ccc(N4CCN(CCC(=O)O)CC4)nc3)nc(-c3cc(Cl)cc(Cl)c3)c2)CC1 [citrate salt]
16.9

* * *

- Protocol description: Equilibrium solubility in pH buffers (pH 4.0-6.0) with pH adjustment
- Type: physicochemical
- Details: pH = 5.0 buffer (50 mM citrate), RT, with pH adjustment
Where a name gives a salt, the structure may show the parent alone.
Reported metric: S: solubility (mg/mL)
Numbers only; they are read as mg/mL.

Look up S: solubility for this molecule: CC(=O)NCC1CCN(Cc2cc(Oc3ccc(N4CCN(CCC(=O)O)CC4)nc3)nc(-c3cc(Cl)cc(Cl)c3)c2)CC1 [Fumarate Type A]
19.3

Look up S: solubility for this molecule: CC(=O)NCC1CCN(Cc2cc(Oc3ccc(N4CCN(CCC(=O)O)CC4)nc3)nc(-c3cc(Cl)cc(Cl)c3)c2)CC1 [HCl salt Type F]
2.32

Look up S: solubility for this molecule: CC(=O)NCC1CCN(Cc2cc(Oc3ccc(N4CCN(CCC(=O)O)CC4)nc3)nc(-c3cc(Cl)cc(Cl)c3)c2)CC1 [Freeform Type A]
3.31

* * *

- Protocol description: Solubility of freeform in acetone/H2O systems with various water activities
- Format: physicochemical
- Details: water (aw 1), water, thermodynamic from solid, H2O, aw 1, RT
Reported metric: solubility at 2 days (µg/mL)
Numbers only; they are read as µg/mL.

Look up solubility at 2 days for this compound: CC(=O)NCC1CCN(Cc2cc(Oc3ccc(N4CCN(CCC(=O)O)CC4)nc3)nc(-c3cc(Cl)cc(Cl)c3)c2)CC1 [Freeform Type A]
10

* * *

- Protocol description: Solubility of freeform in acetone/H2O systems with various water activities
- Type: physicochemical
- Details: acetone (aw 0), organic solvent or mixture, thermodynamic from solid, Acetone, aw 0, RT
Reported metric: solubility at 2 days (mg/mL)
Numbers only; they are read as mg/mL.

Look up solubility at 2 days for this compound: CC(=O)NCC1CCN(Cc2cc(Oc3ccc(N4CCN(CCC(=O)O)CC4)nc3)nc(-c3cc(Cl)cc(Cl)c3)c2)CC1 [Freeform Type B]
0.81
